Reference for the values: ChEMBL document CHEMBL1131872

Overview of reported Ki across a group of compounds:
target: Urokinase-type plasminogen activator (Homo sapiens); assay: Tested for inhibition of plasminogen activator urokinase (microPa)

{"COMPOUND": "CC(C)c1cc(C(C)C)c(S(=O)(=O)NC(Cc2cccc(C(=N)N)c2)C(=O)N2CCC(C(=O)O)CC2)c(C(C)C)c1 (stereo not drawn)", "MEASURE UNIT": "µM", "Ki": 52}
{"COMPOUND": "CC(C)c1cc(C(C)C)c(S(=O)(=O)NC(Cc2cccc(C(=N)N)c2)C(=O)N2CCOCC2)c(C(C)C)c1 (stereo not drawn)", "MEASURE UNIT": "µM", "Ki": 5.4}
{"COMPOUND": "CCOC(=O)N1CCN(C(=O)C(Cc2cccc(C(=N)N)c2)NS(=O)(=O)c2c(C(C)C)cc(C(C)C)cc2C(C)C)CC1 (stereo not drawn)", "MEASURE UNIT": "µM", "Ki": 0.96}
{"COMPOUND": "CC(C)c1cc(C(C)C)c(S(=O)(=O)NC(Cc2cccc(C(=N)N)c2)C(=O)N2CCCCCC2)c(C(C)C)c1 (stereo not drawn)", "MEASURE UNIT": "µM", "Ki": 4.4}
{"COMPOUND": "CC(C)c1cc(C(C)C)c(S(=O)(=O)NC(Cc2cccc(C(=N)N)c2)C(=O)N2CCN(C)CC2)c(C(C)C)c1 (stereo not drawn)", "MEASURE UNIT": "µM", "Ki": 52}
{"COMPOUND": "CC(C)c1cc(C(C)C)c(S(=O)(=O)NC(Cc2cccc(C(=N)N)c2)C(=O)N2CCCC(C(=O)O)C2)c(C(C)C)c1 (stereo not drawn)", "MEASURE UNIT": "µM", "Ki": 17}
{"COMPOUND": "CNC(=O)C1CCN(C(=O)C(Cc2cccc(C(=N)N)c2)NS(=O)(=O)c2c(C(C)C)cc(C(C)C)cc2C(C)C)CC1 (stereo not drawn)", "MEASURE UNIT": "µM", "Ki": 4.8}
{"COMPOUND": "COC(=O)C1CCCCN1C(=O)C(Cc1cccc(C(=N)N)c1)NS(=O)(=O)c1c(C(C)C)cc(C(C)C)cc1C(C)C (stereo not drawn)", "MEASURE UNIT": "µM", "Ki": 33}

---

molecular target: Urokinase-type plasminogen activator (Homo sapiens); assay: Compound was tested for inhibition of plasminogen activator urokinase (microPa)
pKi: −log10 of the molar value.

{"SMILES ENTRY": "CCOC(=O)N1CCN(C(=O)[C@H](Cc2cccc(C(=N)N)c2)NS(=O)(=O)c2c(C(C)C)cc(C(C)C)cc2C(C)C)CC1", "pKi": 6.39}

---

molecular target: Prothrombin (Homo sapiens, UniProt P00734)

{"SMILES ENTRY": "CCOC(=O)N1CCN(C(=O)[C@H](Cc2cccc(C(=N)N)c2)NS(=O)(=O)c2c(C(C)C)cc(C(C)C)cc2C(C)C)CC1", "MEASURE UNIT": "µM", "Ki": 0.49}

---

Overview of reported pKi across a group of compounds:
target: Serine protease 1 (Bos taurus); test: Tested for inhibition of trypsin
Sequence (P00760 whole entry): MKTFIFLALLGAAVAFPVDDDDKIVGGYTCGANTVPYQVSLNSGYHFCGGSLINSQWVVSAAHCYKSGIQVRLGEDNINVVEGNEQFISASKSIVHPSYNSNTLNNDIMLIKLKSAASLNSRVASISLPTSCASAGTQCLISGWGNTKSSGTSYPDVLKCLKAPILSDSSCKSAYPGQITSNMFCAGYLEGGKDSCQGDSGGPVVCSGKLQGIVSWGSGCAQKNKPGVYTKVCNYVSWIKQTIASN
pKi: −log10 of the molar value.

{"COMPOUND": "CC(C)c1cc(C(C)C)c(S(=O)(=O)NC(Cc2cccc(C(=N)N)c2)C(=O)N2CCN(S(C)(=O)=O)CC2)c(C(C)C)c1 (stereo not given)", "pKi": 6.21}
{"COMPOUND": "COC(=O)N1CCN(C(=O)C(Cc2cccc(C(=N)N)c2)NS(=O)(=O)c2c(C(C)C)cc(C(C)C)cc2C(C)C)CC1 (stereo not given)", "pKi": 6.96}
{"COMPOUND": "CC(C)c1cc(C(C)C)c(S(=O)(=O)NC(Cc2cccc(C(=N)N)c2)C(=O)N2CCC(C(=O)O)CC2)c(C(C)C)c1 (stereo not given)", "pKi": 5.19}
{"COMPOUND": "N=C(N)c1cccc(CC(NS(=O)(=O)c2ccc3ccccc3c2)C(=O)N2CCCCCC2)c1 (stereo not given)", "pKi": 6.13}
{"COMPOUND": "COC(=O)C1CCCN(C(=O)C(Cc2cccc(C(=N)N)c2)NS(=O)(=O)c2c(C(C)C)cc(C(C)C)cc2C(C)C)C1 (stereo not given)", "pKi": 6.44}

---

target: Coagulation factor X (Bos taurus, UniProt P00743); test: Compound was tested for inhibition of Coagulation factor X
Sequence (P00743 41-180 limits assumed): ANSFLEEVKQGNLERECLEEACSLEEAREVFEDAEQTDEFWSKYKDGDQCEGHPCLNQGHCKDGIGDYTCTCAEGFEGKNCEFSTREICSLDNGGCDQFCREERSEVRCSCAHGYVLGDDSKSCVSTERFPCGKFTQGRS
Sequence (P00743 234-492 limits assumed): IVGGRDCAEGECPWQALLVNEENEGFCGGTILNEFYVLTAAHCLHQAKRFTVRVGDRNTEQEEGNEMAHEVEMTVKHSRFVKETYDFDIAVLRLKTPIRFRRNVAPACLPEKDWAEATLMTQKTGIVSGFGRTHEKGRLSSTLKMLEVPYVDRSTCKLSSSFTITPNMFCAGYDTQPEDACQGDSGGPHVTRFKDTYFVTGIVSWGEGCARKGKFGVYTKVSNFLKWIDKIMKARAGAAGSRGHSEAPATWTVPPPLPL

{"SMILES ENTRY": "CCOC(=O)N1CCN(C(=O)[C@H](Cc2cccc(C(=N)N)c2)NS(=O)(=O)c2c(C(C)C)cc(C(C)C)cc2C(C)C)CC1", "SYSTEM UNDER TEST": "Coagulation factor X (Bos taurus, UniProt P00743)", "Ki / nM": 1700}

---

experiment: Compound was tested for inhibition of sc-tissue plasminogen activator

{"SMILES ENTRY": "CCOC(=O)N1CCN(C(=O)[C@H](Cc2cccc(C(=N)N)c2)NS(=O)(=O)c2c(C(C)C)cc(C(C)C)cc2C(C)C)CC1", "MEASURE UNIT": "µM", "Ki": 4.9}

---

assay: Compound was tested for inhibition of protein Ca

{"SMILES ENTRY": "CCOC(=O)N1CCN(C(=O)[C@H](Cc2cccc(C(=N)N)c2)NS(=O)(=O)c2c(C(C)C)cc(C(C)C)cc2C(C)C)CC1", "Ki": "2.3 µM"}
